pIC50 values, listed per item
Target: Thymidine phosphorylase (Rattus norvegicus, UniProt Q5FVR2)
Assay: Inhibition of thymidine phosphorylase in T cell lymphomas of Sprague-Dawley rat in presence of 100 uM thymidine and 200 uM phosphate
Keep in mind that pIC50 stands for -log10 of concentration in molar terms.

Some solved entries appear below for comparison.
molecule | pIC50
Cc1cn([C@@H]2CN(C(=O)P(=O)(O)O)C[C@@H]2O)c(=O)[nH]c1=O | 7.96
Cc1cn([C@@H]2CN(C(=S)P(=O)(O)O)C[C@@H]2O)c(=O)[nH]c1=O | 7.82
Cc1cn([C@@H]2CN(C(=O)P(=O)(O)O)C[C@H]2O)c(=O)[nH]c1=O | 6.66
Cc1cn(C2CCN(C(=S)P(=O)(O)O)C2)c(=O)[nH]c1=O (racemic) | 6.72
Cc1cn([C@H]2C[C@H](CO)N(CP(=O)(O)O)C2)c(=O)[nH]c1=O | 6.60

Asked: Look up Thymidine phosphorylase (Rattus norvegicus, UniProt Q5FVR2) data: pIC50 of Cc1cn([C@H]2C[C@H](CO)N(C(=O)P(=O)(O)O)C2)c(=O)[nH]c1=O , then report it.
Given back: 7.35

Asked: Look up Thymidine phosphorylase (Rattus norvegicus, UniProt Q5FVR2) data: pIC50 of Cc1cn(C2CCN(C(=O)P(=O)(O)O)C2)c(=O)[nH]c1=O (racemic) , then report it.
Given back: 6.46

###

Target: Thymidine phosphorylase (Rattus norvegicus)
Sequence (whole entry): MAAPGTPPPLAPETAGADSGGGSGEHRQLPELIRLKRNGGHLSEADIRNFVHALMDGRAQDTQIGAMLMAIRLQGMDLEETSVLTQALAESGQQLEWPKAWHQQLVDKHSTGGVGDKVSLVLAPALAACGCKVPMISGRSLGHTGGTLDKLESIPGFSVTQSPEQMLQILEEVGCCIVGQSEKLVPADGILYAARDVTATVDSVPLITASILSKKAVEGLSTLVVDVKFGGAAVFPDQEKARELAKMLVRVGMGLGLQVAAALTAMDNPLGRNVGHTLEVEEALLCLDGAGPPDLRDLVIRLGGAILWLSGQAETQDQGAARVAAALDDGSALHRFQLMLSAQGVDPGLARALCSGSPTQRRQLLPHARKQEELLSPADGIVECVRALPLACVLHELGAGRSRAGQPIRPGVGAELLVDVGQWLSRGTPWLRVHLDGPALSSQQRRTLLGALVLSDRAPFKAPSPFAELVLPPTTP
Assay: Inhibition of thymidine phosphorylase in T cell lymphomas of Sprague-Dawley rat assessed as residual activity at 10 uM in presence of 100 uM thymidine and 200 uM phosphate
readout: Activity (%)
Express your answer in %, writing the number without its unit.

compound | observed.measurement
Cc1cn(CCOC(c2ccccc2)P(=O)(O)O)c(=O)[nH]c1=O (stereo unspecified) | 9
Cc1cn([C@H]2C[C@H]3O[C@](CBr)(P(=O)(O)O)OC[C@H]3O2)c(=O)[nH]c1=O | 20
C=CCOC(Cn1cc(C)c(=O)[nH]c1=O)OCP(=O)(O)O (stereo unspecified) | 10
Cc1cn([C@@H]2CN(CP(=O)(O)O)C[C@@H]2O)c(=O)[nH]c1=O | 1

Asked: Find the measured Activity of Cc1cn([C@H]2C[C@H](CO)N(CP(=O)(O)O)C2)c(=O)[nH]c1=O and report it.
Given back: 0

Asked: Find the measured Activity of Cc1cn([C@@H]2CN(C(=O)P(=O)(O)O)C[C@@H]2O)c(=O)[nH]c1=O and report it.
Given back: 0

###

Molecular target: Thymidine phosphorylase (Rattus norvegicus)
Experiment: Inhibition of thymidine phosphorylase in T cell lymphomas of Sprague-Dawley rat in presence of 100 uM thymidine and 200 uM phosphate
readout: IC50 (nM)
Express your answer in nM, writing the number without its unit.

compound | observed.measurement
C=CCOC(Cn1cc(C)c(=O)[nH]c1=O)OCP(=O)(O)O (stereo not drawn) | 300

Asked: Find the measured IC50 of Cc1cn([C@@H]2CN(CP(=O)(O)O)C[C@@H]2O)c(=O)[nH]c1=O and report it.
Given back: 45

Asked: Find the measured IC50 of Cc1cn(CC(OCP(=O)(O)O)Oc2ccccc2)c(=O)[nH]c1=O (stereo not drawn) and report it.
Given back: 750

Values from ChEMBL document CHEMBL1159101
